- experimentalSystem: T1, recombinant human IL-25 protein (human, UniProt Q9H293 33-177)
- T1 sequence: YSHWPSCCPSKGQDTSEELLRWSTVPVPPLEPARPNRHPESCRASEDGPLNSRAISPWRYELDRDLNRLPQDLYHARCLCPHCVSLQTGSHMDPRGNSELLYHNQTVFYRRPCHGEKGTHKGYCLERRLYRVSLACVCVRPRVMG
- protocolDetails: cell-based or functional assay
resultType: IC50, IL-25 induced CXCL1 production in HT-29 cells (nM)

{"columns": ["binder", "unitsText", "number"],
 "data": [
  ["IL25Ab5 (antibody, V domains shown) VH: QVQLQQWGAGLLKPSETLSLTCAVYGGSFSAYYWSWIRQSPGKGLEWIGEINHGGNTNYSPSLKSRVTISVDTSKSQFSLKLSSVTAADTAAYYCARGPGITSWAFDFWDQGTMVTVSS VL: DIQMTQSPSSLSASVGDRVTIACQASQDINNYLNWYQQKPGKAPKLLIYDASNLETGVPSRFSGNGSGTDFTFTISSLQPEDIATFYCQQYDTLPYTFGQGTKLEIR", "nM", 0.077],
  ["IL25Ab2 (antibody, V domains shown) VH: QVTLKESGPGILQPSQTLSLTCSFSGFSLSTSGMGVGWIRQPSGKGLEWLAHIWWDDVKQYNPALQSRLTISKDTSSSQVFLKIASVDIADIATYYCARIGPVHHGFPYWGQGALVTVSS VL: QIVLTQSPAIMSAFPGEKVTMSCSASSSVNYMYWHQQKPGSSPRLLIYDTSNLASGVPVRFSGSGSGTSYSLTISRMEAEDAATYYCQQWTSYPPMYTFGGGTKLEIK", "nM", 0.089],
  ["IL25Ab1 (antibody, V domains shown) VH: QVQLKESGPGLVAPSQSLSITCTVSGFSLTDYGINWVRQPPGKGLEWLGMIWGDGVTHYNSVLKSRLSISKDNSMSQIFLKMNSLQTDDTARYYCARTLFYDGTLYYYAMDYWGQGTSVTVSS VL: QIVLTQSPATMSASPGEKVTMTCSASSSVTYMYWYQQKTGSSPRLLIYDTPNLASGVPVRFSGSGSGTSYSLTISRVEAEDAATYYCQQWSSYPHTWTFGGGTKLEIK", "nM", 0.071],
  ["IL25Ab3 (antibody, V domains shown, detected with anti-human IgG or anti-human kappa reagents; also called anti-IL-25Ab3; mouse origin of anti-IL-25 specific antibody) VH: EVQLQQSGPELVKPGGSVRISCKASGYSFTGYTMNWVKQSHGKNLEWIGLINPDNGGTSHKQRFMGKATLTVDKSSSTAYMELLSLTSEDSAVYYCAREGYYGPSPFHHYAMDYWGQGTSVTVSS VL: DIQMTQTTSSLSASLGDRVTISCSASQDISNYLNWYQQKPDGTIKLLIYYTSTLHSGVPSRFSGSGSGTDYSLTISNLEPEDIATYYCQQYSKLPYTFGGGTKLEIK", "nM", 0.067]
]}
